- Organism: Rattus norvegicus
- testName: Open TG-GATES - Regimen: Daily Repeat
- Assay type: toxicity, organism-based, Sprague-Dawley
- Parameters: regimen Daily Repeat, gender Male, age 6 weeks
- reportedConditions: in vivo, po, 1000 mg/kg, 72 h, tissue Blood, route gavage, dose level High, time 3 day
Exercise: for every item that follows, state its recorded Hb.
Give bare numbers, in g/dL.

Here's what some known entries look like.
- compound: "O=C(O)c1ccccc1Nc1ccccc1"
  unitsText: "g/dL"
  readoutNumber: 13.3
- compound: "CCCCNC(=O)NS(=O)(=O)c1ccc(C)cc1 [TOLBUTAMIDE]"
  unitsText: "g/dL"
  readoutNumber: 13.7
- compound: "CC(S)C(=O)NCC(=O)O (centres undefined)"
  unitsText: "g/dL"
  readoutNumber: 13

Q: State its Hb for this compound: CC(=O)[C@@]1(O)CC[C@H]2[C@@H]3C=C(Cl)C4=CC(=O)CC[C@]4(C)[C@H]3CC[C@@]21C
A: 13.9

* * *

- Species on record: Rattus norvegicus
- testName: Open TG-GATES - Regimen: Daily Repeat
- Format: toxicity, organism-based, Sprague-Dawley
- Design: regimen Daily Repeat, gender Male, age 6 weeks
- reportedConditions: in vivo, po, 1000 mg/kg, […], tissue Blood, route gavage, dose level High, time 28 day
Exercise: for every item that follows, state its recorded Fbg.

- molecule: "CCCCNC(=O)NS(=O)(=O)c1ccc(C)cc1 [TOLBUTAMIDE]"
  quantityKind: "Fbg"
  result: "269.5 mg/dL"

Please look at the items below and tell me Fbg for each one, in order.
1. CC(=O)[C@@]1(O)CC[C@H]2[C@@H]3C=C(Cl)C4=CC(=O)CC[C@]4(C)[C@H]3CC[C@@]21C [CHLORMADINONE]
2. CC(S)C(=O)NCC(=O)O (centres undefined) [TIOPRONIN]
3. O=C(O)c1ccccc1Nc1ccccc1 [FENAMIC ACID]

A:
["308 mg/dL", "300.8 mg/dL", "334.5 mg/dL"]

* * *

- Organism: Rattus norvegicus
- testName: Open TG-GATES - Regimen: Daily Repeat
- Type: toxicity, organism-based, Sprague-Dawley
- Set-up: regimen Daily Repeat, gender Male, age 6 weeks
- reportedConditions: in vivo, po, 0 mg/kg, […], tissue Kidney, route gavage, dose level Control, time 14 day
Exercise: for every item that follows, state its recorded KIDNEY_TOTAL.
Numbers only, in g.

Here's what some known entries look like.
- compound: "Nc1ccc(Cc2ccc(N)cc2)cc1"
  unitsText: "g"
  readoutNumber: 2.5
- compound: "CC(=O)[C@@]1(O)CC[C@H]2[C@@H]3C=C(Cl)C4=CC(=O)CC[C@]4(C)[C@H]3CC[C@@]21C"
  unitsText: "g"
  readoutNumber: 2.5
- compound: "CCO"
  unitsText: "g"
  readoutNumber: 2.4
- compound: "O=C(O)c1ccccc1Nc1ccccc1"
  unitsText: "g"
  readoutNumber: 2.5

Please look at the items below and tell me KIDNEY_TOTAL for each one, in order.
1. CN(CCOc1ccc(CC2SC(=O)NC2=O)cc1)c1ccccn1.O=C(O)/C=C\C(=O)O (stereo unspecified) [ROSIGLITAZONE MALEATE]
2. CC(S)C(=O)NCC(=O)O (stereo unspecified)
3. O=c1ccc2ccccc2o1
4. CN(C/C=C/C#CC(C)(C)C)Cc1cccc2ccccc12
5. COc1ccc([C@@H]2Sc3ccccc3N(CCN(C)C)C(=O)[C@@H]2OC(C)=O)cc1
6. CCCCC1C(=O)N(c2ccccc2)N(c2ccccc2)C1=O
7. CCCCNC(=O)NS(=O)(=O)c1ccc(C)cc1 [TOLBUTAMIDE]

A:
[0.9, 2.4, 2.3, 2.5, 2.6, 2.3, 2.5]
